Assay: soluble fraction after stress (log2 fold change); higher = more stays soluble; pooled small domains, quantitative proteomics;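 further: 20 min heating vs room temperature control held 20 min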
Details: stress: 75 degC
Exercise: state measured soluble fraction (log2) for each of the sequences provided.
Numbers only.

Residue String | Test Readout | Reading
HMGGPAGPDFTYTGDDLTRIDYDDGSYKVFTYDAGKLSQIDFTSGGTTTRKTFVYSGDTLIRVDQTI | soluble fraction (log2) | -0.179

Hi team, please reply with soluble fraction (log2) for each item in this list.
1. HMLGSVRTIRQVLDDGRLIVADGGGNPSVIRRSGALAHETFANGQRVIVDPSGRLALELLPD
2. HMGVKHKHKGAGELLAALRTMFPNSSVSTLRKMLTQGRVVLNGEVVHRAKHELTDGDTIEVLERQRAER

Given back:
1. 0.171
2. 0.0384

Asked: Could you tell me which soluble fraction (log2) is on file for `HMGSNENTIREYFDSLIASASKREIMDANPTMSQRTVERILQKLQAEGYVEKIGAARSTRYRRA` ?
Given back: -0.0404
